# Species: Rattus norvegicus
# procedureText: Open TG-GATES - Regimen: Daily Repeat
# Type: toxicity, organism-based, Sprague-Dawley
# Parameters: regimen Daily Repeat, gender Male, age 6 weeks
# appliedConditions: in vivo, po, 0 mg/kg, […], tissue Blood, route gavage, dose level Control, time 14 day
recordedEndpoint: MCH (pg)
I only need the number, in pg, no unit after it.

• CC(=O)Oc1cc(C(C)C)c(OCCN(C)C)cc1C = 21.6
• CCc1oc2ccccc2c1C(=O)c1cc(I)c(O)c(I)c1 = 20.9
• CCN1CCCC1CNC(=O)c1cc(S(N)(=O)=O)ccc1OC (stereo not given) [SULPIRIDE] = 20

Quick one: MCH of CC(=N)S [THIOACETAMIDE] ?
20.2

Quick one: MCH of C#C[C@]1(O)CC[C@H]2[C@@H]3CCc4cc(O)ccc4[C@H]3CC[C@@]21C ?
20.9
